- TARGET: β5i subunit of human iCP (Homo sapiens, UniProt P20618+P28062)
- Construct: purchased Boston Biochem, Inc., Cambridge, MA, USA
- MEASUREMENT_PROTOCOL: Inhibition of β5i activity (RA at 10 µM, IC50, IC50 shift), Suc-LLVY-AMC
- Type: biochemical
- TEST_SETTINGS: ΔpIC50/ΔNheavy with compound 1 as reference
Entry flag: TRUE if Group efficiency (GE) reaches 0.9; FALSE if it does not.

Would you please look over these solved cases?
[
  {
    "COMPOUND_SMILES": "COc1cccc2oc(C#N)nc12",
    "DISCRETE_LABEL": "FALSE"
  },
  {
    "COMPOUND_SMILES": "N#Cc1nc2ccc(Cl)cc2o1",
    "DISCRETE_LABEL": "TRUE"
  },
  {
    "COMPOUND_SMILES": "N#Cc1nc2c(O)cccc2o1",
    "DISCRETE_LABEL": "TRUE"
  },
  {
    "COMPOUND_SMILES": "CC(=O)Oc1cccc2oc(C#N)nc12",
    "DISCRETE_LABEL": "FALSE"
  },
  {
    "COMPOUND_SMILES": "CC(=O)Oc1ccc2oc(C#N)nc2c1",
    "DISCRETE_LABEL": "FALSE"
  }
]

With those in mind, consider the next compound.
Reported Group efficiency (GE) at or above 0.9? N#Cc1nc2cc(O)ccc2o1
TRUE

---

- TARGET: human caspase-1 (Homo sapiens)
- Construct: purchased Sigma Aldrich, St. Louis, MO, USA C5482; host or cells: E. coli
- Sequence (P29466 120-297 limits assumed): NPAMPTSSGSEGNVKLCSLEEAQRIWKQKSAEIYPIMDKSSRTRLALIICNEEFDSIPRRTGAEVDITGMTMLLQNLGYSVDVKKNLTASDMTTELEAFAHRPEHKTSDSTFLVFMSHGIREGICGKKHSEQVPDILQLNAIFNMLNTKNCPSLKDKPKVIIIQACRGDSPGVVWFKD
- Sequence (P29466 317-404 limits assumed): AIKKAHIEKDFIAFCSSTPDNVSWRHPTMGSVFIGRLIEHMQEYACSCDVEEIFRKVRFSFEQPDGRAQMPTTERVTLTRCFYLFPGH
- MEASUREMENT_PROTOCOL: Caspase-1 assay, Ac-YVAD-AMC
- Type: biochemical
- TEST_SETTINGS: 30 min pre-incubation, read-out: Residual activity [%] ± SD, Caspase-1
- Description: The inhibitory activity of the compounds against caspase-1 was investigated by fluorimetric assay using Ac-YVAD-AMC (SCP0069-5 mg, Sigma Aldrich, St. Louis, MO, USA) as a substrate. Recombinant human caspase-1 (expressed in E. coli, C5482, batch: SLBX3303, Sigma Aldrich, St. Louis, MO, USA) was diluted with 1 mL of assay buffer (50 mM HEPES pH 7.4, 100 mM NaCl, 1 mM EDTA, 10% (v/v) glycerol, 0.1% CHAPS, 1 mM DTT), divided into 50 µL aliquots and stored at −80 °C. […]
MEASUREMENT_TYPE: remaining activity at 100 µM (%)
// units = %; emit number, no label

Worked cases, remaining activity at 100 µM given:
[
  {
    "COMPOUND_SMILES": "N#Cc1nc2c(O)cccc2o1",
    "remaining activity at 100 µM / %": 9
  },
  {
    "COMPOUND_SMILES": "CC(=O)Oc1cccc2oc(C#N)nc12",
    "remaining activity at 100 µM / %": 49
  },
  {
    "COMPOUND_SMILES": "CC(=O)Oc1ccc2oc(C#N)nc2c1",
    "remaining activity at 100 µM / %": 12
  }
]

What value of remaining activity at 100 µM has been recorded for this entry: N#Cc1nc2cc(O)ccc2o1
0

---

- TARGET: β1i subunit of human iCP (Homo sapiens, UniProt P28065+P40306)
- Construct: purchased Boston Biochem, Inc., Cambridge, MA, USA
- MEASUREMENT_PROTOCOL: Inhibition of β1i activity (RA, IC50), Ac-PAL-AMC
- Format: biochemical
- TEST_SETTINGS: PA28α, 30 min pre-incubation
MEASUREMENT_TYPE: IC50 (µM)
State just the number; it will be interpreted in µM.

[
  {
    "COMPOUND_SMILES": "C=Cc1nc(CC(=O)N[C@@H](CC(C)C)B2O[C@@H]3C[C@@H]4C[C@@H](C4(C)C)[C@]3(C)O2)cs1",
    "UNIT_LABEL": "µM",
    "IC50": 2.2
  },
  {
    "COMPOUND_SMILES": "COc1cccc2oc(C#N)nc12",
    "UNIT_LABEL": "µM",
    "IC50": 78
  }
]

Fill in the blank: the reported IC50 of CC(C)C[C@H](NC(=O)CCn1c(C#N)nc2ccccc21)B(O)O is ____.
2.8

Can you look up the measured IC50 of COc1ccc2nc(C#N)oc2c1 for me?
69

Field request: IC50 | item: CC(C)C[C@H](NC(=O)CCCn1c(C#N)nc2ccccc21)B1O[C@@H]2C[C@@H]3C[C@@H](C3(C)C)[C@]2(C)O1
6

Given the entry CC(C)C[C@H](NC(=O)CCn1c(C#N)nc2cccc(Cl)c21)B1O[C@@H]2C[C@@H]3C[C@@H](C3(C)C)[C@]2(C)O1 , report its measured IC50.
1.9

Which IC50 value belongs to CC(C)C[C@H](NC(=O)CCn1c(C#N)nc2ccccc21)B1O[C@@H]2C[C@@H]3C[C@@H](C3(C)C)[C@]2(C)O1 ?
1.2

Fill in: IC50 of CC(C)C[C@H](NC(=O)Cc1ccc2oc(C#N)nc2c1)B(O)O is ___
2.1

I am curious: what IC50 value has been reported for CC(C)C[C@H](NC(=O)CCCCn1c(C#N)nc2ccccc21)B(O)O ?
4.9

Name the reported IC50 value associated with the molecule CC(C)C[C@H](NC(=O)CCCn1c(C#N)nc2ccccc21)B(O)O
9.4

// lookup IC50 for CC(C)C[C@H](NC(=O)Cc1ccc2oc(C#N)nc2c1)B1O[C@@H]2C[C@@H]3C[C@@H](C3(C)C)[C@]2(C)O1
1.3
